measured_target: T1, rat calcitonin receptor (rat, UniProt P32214 25-516)
T1 construct: whole, on cells; membranes of transiently transfected BHK tk'ts 13 cells (Assay VIII); also called rCTR; rat calcitonin (a) receptor
T1 sequence (looked up): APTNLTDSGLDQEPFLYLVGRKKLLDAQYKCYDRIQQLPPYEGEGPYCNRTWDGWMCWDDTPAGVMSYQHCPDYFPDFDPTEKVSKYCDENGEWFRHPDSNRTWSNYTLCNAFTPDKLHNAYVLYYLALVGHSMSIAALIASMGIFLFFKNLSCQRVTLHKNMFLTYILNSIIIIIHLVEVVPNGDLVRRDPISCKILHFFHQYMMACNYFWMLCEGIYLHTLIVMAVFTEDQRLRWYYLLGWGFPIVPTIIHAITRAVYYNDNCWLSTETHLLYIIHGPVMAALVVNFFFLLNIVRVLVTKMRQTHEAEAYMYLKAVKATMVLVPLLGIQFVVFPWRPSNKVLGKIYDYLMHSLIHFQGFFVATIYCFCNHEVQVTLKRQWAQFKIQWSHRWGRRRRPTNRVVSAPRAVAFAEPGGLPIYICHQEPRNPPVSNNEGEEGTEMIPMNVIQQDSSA
procedure_summary: SPA competition with 125I-calcitonin, membranes of BHK cells with rat calcitonin receptor (Assay VIII)
Numbered stars: 1 amine (or outer) side, 2 acyl side, 3 side chain; on linkers, the order of the positions; unused ones are H or OH. Bridge positions count the residues as written; N and C are the ends. Side chains are listed from the residue outwards. Ends that are not written are not given here. * marks the point of attachment. C20 diacid = O=C(O)CCCCCCCCCCCCCCCCCCC(=O)*; γGlu = O=C(O)[C@H](CCC(=O)[*:2])N[*:1]; AEEA = NCCOCCOCC(=O)O
quantity: IC50 (nM)

Known results for binders:
binder="K([AEEA-C20 diacid])CNTATCATQRLANFLRHSSPNFGAIPSSTNVGSNTY-NH2 (disulfide 2-7 (inferred), analogue of human amylin; also called compound 43) [N^ε1-[2-[2-[2-(19-carboxynonadecanoylamino)ethoxy]ethoxy]acetyl]-[Arg17,Pro21,Pro27]-h-amylin]" experimental_value=7.6
binder="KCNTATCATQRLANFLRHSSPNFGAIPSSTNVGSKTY (C20 diacid-gGlu on the alpha amino group of the N-terminal residue (Lys 1); disulfide bridge between the two Cys residues; C-terminal amide, analogue of human amylin; also called compound 34) [N^α1-[(4S)-4-carboxy-4-(19-carboxynonadecanoylamino)butanoyl]-[Arg17,Pro21,Pro27,Lys35]-h-amylin]" experimental_value=89.2
binder="K([γGlu-C20 diacid])CNTATCATQRLANFLRHSSPNFGAIPSSTNVGSKTY-NH2 (disulfide 2-7 (inferred), analogue of human amylin; also called compound 35) [N^ε1-[(4S)-4-carboxy-4-(19-carboxynonadecanoylamino)butanoyl]-[Arg17,Pro21,Pro27,Lys35]-h-amylin]" experimental_value=61.7
binder="{C20 diacid-γGlu}-KCNTATCATQRLANFLRHSSPNFGAIPSSTNVGPETY-NH2 (disulfide 2-7 (inferred), analogue of human amylin; also called compound 29)" experimental_value=21.6
binder="K([AEEA-γGlu-C20 diacid])RCNTATCATQRLANFLRHSSPNFGAIPSSTNVGSHTY-NH2 (disulfide 3-8 (inferred), analogue of human amylin extended by Lys at the N-terminus; also called compound 45)" experimental_value=41.8

1 = {C20 diacid-γGlu}-KCNTATCATQRLANFLRHSSPNFGAIPSSTPVGSETY-NH2 (disulfide 2-7 (inferred), analogue of human amylin; also called compound 28)
2 = K([γGlu-C20 diacid])RCNTATCATQRLANFLRHSSPNFGAIPSSTNVGSHTY-NH2 (disulfide 3-8 (inferred), analogue of human amylin extended by Lys at the N-terminus; also called compound 44)
-- ask When their IC50 values are compared, which is larger, 1 or 2 ? When you have decided, please share the label of that item.
-- reply 1
